# SYSTEM: Homo sapiens glucokinase (hexokinase IV) (HsGlcK) (Homo sapiens, UniProt P35557)
# Sequence (P35557 12-457 limits assumed): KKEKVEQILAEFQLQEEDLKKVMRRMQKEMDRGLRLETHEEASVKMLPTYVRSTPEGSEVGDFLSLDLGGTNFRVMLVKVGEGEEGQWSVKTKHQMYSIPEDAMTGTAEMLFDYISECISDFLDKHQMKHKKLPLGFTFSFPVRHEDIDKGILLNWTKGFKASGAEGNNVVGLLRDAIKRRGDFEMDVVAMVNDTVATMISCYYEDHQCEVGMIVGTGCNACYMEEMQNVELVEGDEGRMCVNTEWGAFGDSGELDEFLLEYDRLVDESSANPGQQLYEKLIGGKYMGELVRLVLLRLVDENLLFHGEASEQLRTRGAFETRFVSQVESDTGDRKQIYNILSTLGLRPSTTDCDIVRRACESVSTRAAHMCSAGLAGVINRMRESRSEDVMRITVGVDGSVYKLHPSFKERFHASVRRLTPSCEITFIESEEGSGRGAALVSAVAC
Reported Ki by item:
Report only the number, with the unit µM understood.

Field: example entries. Status: answers known.
COMPOUND | EXPERIMENTAL RESULT
O=C(N[C@H]1C(O)O[C@H](CO)[C@@H](O)[C@@H]1O)c1ccccc1 (stereo partly drawn) | 376
O=C(CCc1ccc(O)cc1)N[C@H]1C(O)O[C@H](CO)[C@@H](O)[C@@H]1O (mixture of isomers) | 242

Here is another compound to look at.
For the compound shown here, O=C(N[C@H]1C(O)O[C@H](CO)[C@@H](O)[C@@H]1O)OCc1ccccc1 (mixture of isomers) , give the reported Ki.
174
